Kindly state pKd for each of the entries shown.
Target: T1, Human C5 (human, UniProt P01031 19-1676)
T1 construct: The natural protein has a beta and an alpha chain; also called complement factor 5; complement component 5
Assay: SPR, mAb captured by anti-hFc, 25C
Give bare numbers, as −log10 of the molar value.

Some entries whose results are on file:
binder	result value
H4H12166P6 (antibody, human IgG4, V domains shown, human IgG4 Fc with S108P hinge mutation) VH: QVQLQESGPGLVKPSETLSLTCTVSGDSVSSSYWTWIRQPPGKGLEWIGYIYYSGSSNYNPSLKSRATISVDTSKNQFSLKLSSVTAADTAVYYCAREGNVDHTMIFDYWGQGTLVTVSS VL: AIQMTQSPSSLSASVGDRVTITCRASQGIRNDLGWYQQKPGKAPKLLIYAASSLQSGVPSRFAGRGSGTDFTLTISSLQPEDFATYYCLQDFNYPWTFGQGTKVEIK	9.43
H4H12166P5 (antibody, human IgG4, V domains shown, human IgG4 Fc with S108P hinge mutation) VH: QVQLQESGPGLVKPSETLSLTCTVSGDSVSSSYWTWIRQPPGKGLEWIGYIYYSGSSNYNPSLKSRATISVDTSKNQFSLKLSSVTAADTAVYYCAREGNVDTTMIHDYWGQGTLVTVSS VL: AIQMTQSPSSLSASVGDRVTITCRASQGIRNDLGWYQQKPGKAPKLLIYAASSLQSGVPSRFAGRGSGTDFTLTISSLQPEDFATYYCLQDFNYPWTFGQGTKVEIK	8.94
H4H12166P2 (antibody, human IgG4, V domains shown, human IgG4 Fc with S108P hinge mutation) VH: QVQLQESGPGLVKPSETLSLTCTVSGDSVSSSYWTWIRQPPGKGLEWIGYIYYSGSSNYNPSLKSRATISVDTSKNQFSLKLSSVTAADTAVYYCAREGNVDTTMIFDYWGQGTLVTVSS VL: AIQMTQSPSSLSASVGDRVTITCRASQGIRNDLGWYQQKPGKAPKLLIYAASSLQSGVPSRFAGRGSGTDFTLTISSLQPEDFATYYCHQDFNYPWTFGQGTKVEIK	9.36
H4H12166P10 (antibody, human IgG4, V domains shown, human IgG4 Fc with S108P hinge mutation) VH: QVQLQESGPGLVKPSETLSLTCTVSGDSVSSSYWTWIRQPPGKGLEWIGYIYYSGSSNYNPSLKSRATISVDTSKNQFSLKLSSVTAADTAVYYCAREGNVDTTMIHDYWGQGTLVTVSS VL: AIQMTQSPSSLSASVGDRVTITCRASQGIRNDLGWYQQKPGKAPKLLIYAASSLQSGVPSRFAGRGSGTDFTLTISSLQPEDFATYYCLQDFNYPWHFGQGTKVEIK	8.08
H4H11686N (antibody, human IgG4, V domains shown, also called H2M11686N) VH: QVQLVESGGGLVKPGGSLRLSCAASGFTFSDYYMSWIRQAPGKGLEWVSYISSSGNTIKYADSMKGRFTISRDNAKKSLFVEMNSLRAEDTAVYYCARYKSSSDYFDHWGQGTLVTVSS VL: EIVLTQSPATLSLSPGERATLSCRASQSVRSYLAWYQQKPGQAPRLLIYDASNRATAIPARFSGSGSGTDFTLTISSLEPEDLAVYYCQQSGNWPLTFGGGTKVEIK	9.82

Lab note: each binder below needs its pKd filled in.
1. H4H12164P (antibody, human IgG4, V domains shown) VH: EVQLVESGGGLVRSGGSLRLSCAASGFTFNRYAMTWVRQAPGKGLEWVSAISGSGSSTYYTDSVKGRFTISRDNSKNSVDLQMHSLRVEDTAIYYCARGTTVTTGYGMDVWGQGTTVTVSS VL: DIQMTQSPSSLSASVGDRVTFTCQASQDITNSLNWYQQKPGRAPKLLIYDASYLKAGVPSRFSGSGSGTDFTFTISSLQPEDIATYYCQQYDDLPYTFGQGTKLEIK
2. H4H12166P7 (antibody, human IgG4, V domains shown, human IgG4 Fc with S108P hinge mutation) VH: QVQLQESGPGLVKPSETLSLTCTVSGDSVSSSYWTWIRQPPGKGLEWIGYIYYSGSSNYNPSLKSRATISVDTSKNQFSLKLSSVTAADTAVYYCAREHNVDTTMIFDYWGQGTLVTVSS VL: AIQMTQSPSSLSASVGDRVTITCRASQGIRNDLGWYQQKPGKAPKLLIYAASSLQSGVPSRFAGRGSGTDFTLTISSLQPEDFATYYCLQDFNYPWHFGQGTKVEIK
3. H4H12175P (antibody, human IgG4, V domains shown) VH: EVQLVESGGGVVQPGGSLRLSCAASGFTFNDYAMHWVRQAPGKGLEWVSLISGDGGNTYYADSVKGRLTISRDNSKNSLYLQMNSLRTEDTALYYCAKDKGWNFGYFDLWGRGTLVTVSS VL: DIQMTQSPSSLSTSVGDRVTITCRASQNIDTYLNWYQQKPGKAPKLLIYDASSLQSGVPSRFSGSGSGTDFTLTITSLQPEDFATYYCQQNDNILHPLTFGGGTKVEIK
4. H4H12166P9 (antibody, human IgG4, V domains shown, human IgG4 Fc with S108P hinge mutation) VH: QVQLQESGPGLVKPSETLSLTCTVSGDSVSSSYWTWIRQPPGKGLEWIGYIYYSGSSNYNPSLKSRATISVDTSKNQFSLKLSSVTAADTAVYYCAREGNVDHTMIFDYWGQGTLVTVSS VL: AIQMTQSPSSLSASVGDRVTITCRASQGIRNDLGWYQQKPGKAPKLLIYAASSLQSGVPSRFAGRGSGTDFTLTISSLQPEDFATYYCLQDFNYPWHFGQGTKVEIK
5. H4H12161P (antibody, human IgG4, V domains shown) VH: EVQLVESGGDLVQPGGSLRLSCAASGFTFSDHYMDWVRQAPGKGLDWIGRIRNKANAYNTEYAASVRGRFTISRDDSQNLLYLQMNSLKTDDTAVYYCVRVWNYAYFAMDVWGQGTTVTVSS VL: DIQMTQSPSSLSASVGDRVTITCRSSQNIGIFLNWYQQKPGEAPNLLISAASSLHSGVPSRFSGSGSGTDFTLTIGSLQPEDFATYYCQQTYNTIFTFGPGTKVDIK

1. 9.52
2. 8.44
3. 9.04
4. 9.10
5. 9.77
